# IC50 values compiled below
molecular target: PIK3CA (human) (UniProt P42336)
Sequence (P42336 whole entry, looked up): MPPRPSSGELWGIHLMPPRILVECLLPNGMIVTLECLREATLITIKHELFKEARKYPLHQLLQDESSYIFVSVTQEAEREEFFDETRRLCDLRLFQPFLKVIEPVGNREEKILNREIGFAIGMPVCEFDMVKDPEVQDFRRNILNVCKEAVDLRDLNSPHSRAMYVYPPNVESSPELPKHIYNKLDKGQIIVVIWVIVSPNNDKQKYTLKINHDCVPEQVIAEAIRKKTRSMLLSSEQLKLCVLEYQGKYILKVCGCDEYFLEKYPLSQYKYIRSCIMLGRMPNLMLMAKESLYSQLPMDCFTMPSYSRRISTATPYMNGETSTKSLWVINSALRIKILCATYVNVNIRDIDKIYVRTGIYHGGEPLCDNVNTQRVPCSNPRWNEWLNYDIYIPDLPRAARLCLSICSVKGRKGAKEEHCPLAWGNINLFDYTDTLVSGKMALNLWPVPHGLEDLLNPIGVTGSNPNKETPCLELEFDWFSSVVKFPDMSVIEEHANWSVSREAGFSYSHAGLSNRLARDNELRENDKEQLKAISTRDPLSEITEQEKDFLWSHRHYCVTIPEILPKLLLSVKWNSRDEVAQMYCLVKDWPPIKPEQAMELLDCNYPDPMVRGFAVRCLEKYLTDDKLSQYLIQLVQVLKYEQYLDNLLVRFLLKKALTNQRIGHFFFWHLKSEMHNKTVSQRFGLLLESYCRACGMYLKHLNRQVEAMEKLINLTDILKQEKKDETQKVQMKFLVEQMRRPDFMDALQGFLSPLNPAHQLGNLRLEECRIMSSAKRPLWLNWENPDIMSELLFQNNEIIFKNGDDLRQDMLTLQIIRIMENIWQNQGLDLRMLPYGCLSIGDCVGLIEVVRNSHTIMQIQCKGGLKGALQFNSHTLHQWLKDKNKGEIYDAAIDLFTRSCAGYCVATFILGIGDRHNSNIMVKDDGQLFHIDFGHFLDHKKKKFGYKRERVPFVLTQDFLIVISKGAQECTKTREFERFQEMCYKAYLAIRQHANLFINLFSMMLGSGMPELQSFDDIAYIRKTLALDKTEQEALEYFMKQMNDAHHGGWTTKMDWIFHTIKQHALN

Recorded IC50, per entry:
- smiles.input: "COc1cncc(-c2nc(-c3ccnc(NC(C)=O)c3)sc2-c2ncc[nH]2)c1"
  target: "PIK3CA (human) (UniProt P42336)"
  obs.value: "100 to 1000 nM"
- smiles.input: "Cc1nc2ccc(Br)cn2c1-c1nc(-c2ccccc2)c(-c2nc[nH]n2)s1"
  target: "PIK3CA (human) (UniProt P42336)"
  obs.value: "100 to 1000 nM"
- smiles.input: "Cc1nn2ccccc2c1-c1nc(-c2ccccc2OCc2ccccc2)c(-c2nc[nH]n2)s1"
  target: "PIK3CA (human) (UniProt P42336)"
  obs.value: "100 to 1000 nM"
- smiles.input: "Cc1nn2ccc(OCCN3CCN(S(C)(=O)=O)CC3)cc2c1-c1nc(-c2ccccc2)c(-c2nc[nH]n2)s1"
  target: "PIK3CA (human) (UniProt P42336)"
  obs.value: "< 100 nM"
- smiles.input: "N#Cc1c(-c2ccnc(NC(=O)c3cccnc3)c2)sc(-c2nnc[nH]2)c1-c1ccc(Cl)cc1Cl"
  target: "PIK3CA (human) (UniProt P42336)"
  obs.value: "100 to 1000 nM"

# ---- query molecule ----
Query string: GET /values?readout=IC50&system=PIK3CA (human) (UniProt P42336)&item= `N#Cc1c(-c2ccnc(NC(=O)CO)c2)sc(-c2nnc[nH]2)c1-c1ccc(Cl)cc1Cl`
Result string: < 100 nM

* * *

target: PIK3CA (human)
# IC50 values compiled below

- smiles.input: "N#Cc1c(-c2ccnc(N)c2)sc(-c2ccn[nH]2)c1-c1ccc(Cl)cc1Cl"
  target: "PIK3CA (human)"
  obs.value: "100 to 1000 nM"
- smiles.input: "N#Cc1c(-c2ccncc2)sc(C(N)=O)c1-c1ccc(Cl)cc1Cl"
  target: "PIK3CA (human)"
  obs.value: "100 to 1000 nM"
- smiles.input: "Nc1cc(-c2nc(-c3ccc(Cl)cc3Cl)c(-c3ncc[nH]3)s2)ncn1"
  target: "PIK3CA (human)"
  obs.value: "100 to 1000 nM"

Query string: GET /values?readout=IC50&system=PIK3CA (human)&item= `CCOc1cccc(F)c1-c1nc(-c2c(C)nn3ccccc23)sc1-c1nc[nH]n1`
Result string: 100 to 1000 nM

Query string: GET /values?readout=IC50&system=PIK3CA (human)&item= `CC(=O)Nc1cc(-c2nc(-c3ccc(Cl)cc3)c(-c3ncc[nH]3)s2)ccn1`
Result string: 100 to 1000 nM

Query string: GET /values?readout=IC50&system=PIK3CA (human)&item= `N#Cc1c(-c2ccnc(NC(=O)CCc3ccccc3)c2)sc(-c2nnc[nH]2)c1-c1ccc(Cl)cc1Cl`
Result string: 100 to 1000 nM

Query string: GET /values?readout=IC50&system=PIK3CA (human)&item= `COC(=O)c1ccc(-c2nc(-c3ccnc(NC(C)=O)c3)sc2-c2ncc[nH]2)cc1`
Result string: 100 to 1000 nM

Query string: GET /values?readout=IC50&system=PIK3CA (human)&item= `CC(C)(C)OC(=O)Nc1cc(-c2sc(-c3nnc[nH]3)c(-c3ccc(Cl)cc3Cl)c2C#N)ccn1`
Result string: 100 to 1000 nM

Query string: GET /values?readout=IC50&system=PIK3CA (human)&item= `Cc1nn2ccccc2c1-c1nc(-c2cccc3ncccc23)c(-c2nc[nH]n2)s1`
Result string: 100 to 1000 nM

Query string: GET /values?readout=IC50&system=PIK3CA (human)&item= `CC(=O)Nc1cc(-c2nc(-c3ccc(Cl)cc3Cl)c(-c3nc(C)c[nH]3)s2)ccn1`
Result string: < 100 nM

Query string: GET /values?readout=IC50&system=PIK3CA (human)&item= `Nc1cc(-c2cc(-c3ccc(Cl)cc3Cl)c(-c3ncc[nH]3)s2)ccn1`
Result string: < 100 nM

Query string: GET /values?readout=IC50&system=PIK3CA (human)&item= `CC(=O)Nc1cc(-c2nc(-c3cccc(Cl)c3)c(-c3ncc[nH]3)s2)ccn1`
Result string: 100 to 1000 nM
